Taken from PubChem BioAssay (NCI).

# Test system: IGROV1 ovarian
# Experimental Protocol: NCI tumour cell line growth inhibition, 48 h; in the data active = GI50 below about 0.43 µM; inactive = the rest
Would you mind answering with one of these outcomes? active, inactive

Worked examples follow.
CN1CCN(Cc2ccc(NC(=O)c3cnc(F)c(C#Cc4cnc(N)c5ncccc45)c3)cc2C(F)(F)F)CC1 | active
COc1cc(-c2cc(/C=C3\C(=O)Nc4ccc(Cl)cc43)[nH]n2)cc(OC)c1OC | inactive

Challenge: Please let me know the test result on file for O=C(NNC(=O)C1CCN(S(=O)(=O)c2ccc(-c3ccccc3)cc2)CC1)c1ccc(C(F)(F)F)cc1 .
Response given: inactive

Challenge: Please let me know the test result on file for CC1=C(C(=O)Nc2ccc(Cl)c(Cl)c2)C(c2ccccc2Cl)NC(=S)N1 (stereo not given) .
Response given: inactive

Challenge: Please let me know the test result on file for Cn1cc(C2=C(c3cn(C)c4cc(C(=O)O)ccc34)C(=O)NC2=O)c2ccccc21 .
Response given: inactive

---

# reported TGI; entries follow
# System: SR leukemia
# Experimental Protocol: NCI tumour cell line growth inhibition, 48 h

Below, each entry is followed by its recorded TGI result.
COc1ccc(NS(=O)c2ccc(Cl)cc2)cc1 (stereo unspecified) | > 100 µM
O=C(O)CCc1nc2c(n1Cc1ccccc1)C(=O)c1ccccc1C2=O | > 100 µM
CCN(CC)CCn1c(N)c(-c2nc3ccccc3n2C)c2nc(C#N)c(C#N)nc21 | > 50 µM

Challenge: Look up and report measured TGI (SR leukemia) for the following molecule: CO[C@]12CC(=O)C3(C(C[C@H]4CC5CCC6=CC(=O)CC[C@]6(OC(C)=O)C5C[C@@]43C)C1)C1C[C@H]3[C@@H]4CCC5=CC(=O)CC[C@]5(OC(C)=O)[C@H]4CC[C@]3(C)C12 (stereo partly specified)
Response given: > 100 µM

Challenge: Look up and report measured TGI (SR leukemia) for the following molecule: CCCn1c2c(c3ccccc3c1=O)C(=O)c1cc3c(cc1-2)OCO3
Response given: > 100 µM

Challenge: Look up and report measured TGI (SR leukemia) for the following molecule: O=C(CC1(O)C(=O)Nc2ccc([N+](=O)[O-])cc21)c1ccc2ccccc2c1 (stereo unspecified)
Response given: > 100 µM

---

# Tested on: UACC-257 melanoma
# Experimental Protocol: NCI tumour cell line growth inhibition, 48 h
# reported TGI; entries follow

Below, each entry is followed by its recorded TGI result.
O=Cc1ccc(-c2nccc3c2[nH]c2ccccc23)o1 | > 55.9 µM
CNCCCNc1c2cc(OC)ccc2nc2cccc([N+](=O)[O-])c12 | 0.397 µM
CCCCSSC(=S)N(CC)CC | > 100 µM
COc1ccc(NS(=O)c2ccc(Cl)cc2)cc1 (stereo unspecified) | > 100 µM

Challenge: Quick one: give measured TGI for CN=C(NC#N)N(Cc1ccccc1)Cc1ccccc1
Response given: > 100 µM

Challenge: Quick one: give measured TGI for Cc1nc(C(N)=S)sc1C(=O)CC(=O)C(=O)Nc1c(C(C)C)cccc1C(C)C
Response given: > 100 µM

---

# Test system: M14 melanoma
# Experimental Protocol: NCI tumour cell line growth inhibition, 48 h
Readout: TGI

Challenge: Quick one: give measured TGI for CC(=O)c1c(-c2ccco2)c(C#N)c(=S)n(C2OC(CO)C(O)C(O)C2O)c1-c1ccccc1 (configuration not stated)
Response given: > 100 µM

Challenge: Quick one: give measured TGI for NC(=O)c1ncn2c1NCC1OC2C(O)C1O (configuration not stated)
Response given: > 100 µM

Challenge: Quick one: give measured TGI for O=C(Cc1ccc(OCc2cccc(Cl)c2)cc1)NO
Response given: > 100 µM
